Tested on: HIV-1 Strain B (M046I, I050V)
Test: microbe, parasite or virus in culture
Format: cell-based
Details: clinical isolate Strain B; read-out: B EC50
Protocol: MT4-LTR-EGFP cells were obtained by transfecting MT4 cells with a selectable construct encompassing the sequences coding for the HIV long terminal repeat (LTR) as a promoter for the expression of enhanced green fluorescent protein (EGFP) and subsequent selection of permanently transfected cells. The antiviral activity on different HIV-1 strains, was determined in a cell-based virus replication assay. […]
hey, just use met if measured EC50 is less than 3 nM, otherwise not met

compound | target of assay | cat
COC(=O)N[C@H](C(=O)N[C@@H](Cc1ccc(-c2ccc(OC)nc2)cc1)[C@@H](O)C[C@@H](Cc1ccccc1F)C(=O)N[C@H]1c2cc(F)ccc2OC[C@H]1O)C(C)(C)C | HIV-1 Strain B (M046I, I050V) | met
COc1ccc(-c2ccc(C[C@H](NC(=O)O[C@H]3CO[C@H]4OCC[C@H]43)[C@@H](O)C[C@@H](Cc3ccccc3F)C(=O)N[C@H]3[C@H](C)CCC[C@H]3O)cc2)cn1 | HIV-1 Strain B (M046I, I050V) | met
COCCOC(=O)N[C@H](C(=O)N[C@@H](Cc1ccc(-c2ccc(OC)nc2)cc1)[C@@H](O)C[C@@H](Cc1ccccc1F)C(=O)N[C@H]1c2cc(Cl)ccc2OC[C@H]1O)C(C)(C)C | HIV-1 Strain B (M046I, I050V) | met
COC(=O)N[C@H](C(=O)N[C@@H](Cc1ccc(-c2cnc(OC)nc2)cc1)[C@@H](O)C[C@@H](Cc1cccc(F)c1)C(=O)N[C@H]1c2cc(F)ccc2OC[C@H]1O)C(C)(C)C | HIV-1 Strain B (M046I, I050V) | not met
COC(=O)N[C@H](C(=O)N[C@@H](Cc1ccc(-c2ccc(OC)nc2)cc1)[C@@H](O)C[C@@H](Cc1ccccc1Cl)C(=O)N[C@H]1c2cc(Cl)ccc2OC[C@H]1O)C(C)(C)C | HIV-1 Strain B (M046I, I050V) | met
COC(=O)N[C@H](C(=O)N[C@@H](Cc1ccc(-c2cc(C)nc(C)c2)cc1)[C@@H](O)C[C@@H](Cc1ccccc1F)C(=O)N[C@H]1c2cccc(Cl)c2OC[C@H]1O)C(C)(C)C | HIV-1 Strain B (M046I, I050V) | met
COc1ccc(-c2ccc(C[C@H](NC(=O)[C@@H](NC(=O)C3(C#N)CC3)C(C)(C)C)[C@@H](O)C[C@@H](Cc3ccccc3F)C(=O)N[C@H]3c4cc(Cl)ccc4OC[C@H]3O)cc2)cn1 | HIV-1 Strain B (M046I, I050V) | not met
COC(=O)N[C@H](C(=O)N[C@@H](Cc1ccc(-c2csc(OC)n2)cc1)[C@@H](O)C[C@@H](Cc1ccccc1F)C(=O)N[C@H]1c2cc(Cl)ccc2OC[C@H]1O)C(C)(C)C | HIV-1 Strain B (M046I, I050V) | not met
COC(=O)NC(C(=O)NC(Cc1ccc(-c2cnc(C)s2)cc1)C(O)CC(Cc1cccc(Cl)c1)C(=O)NC1c2cc(Cl)ccc2OCC1O)C(C)(C)C (stereo not shown) | HIV-1 Strain B (M046I, I050V) | met
COC(=O)NC(C(=O)NC(Cc1ccc(-c2ccc(OC)nc2)cc1)C(O)CC(Cc1ccccc1F)C(=O)NC1C(C)CCC1O)C(C)(C)C (stereo not shown) | HIV-1 Strain B (M046I, I050V) | met

* * *

Tested on: mock-infected MT4 cells
Assay: General toxicity assay on mock-infected MT4 cells with CMV-EGFP reporter (CC50)
Type: cell-based
Conditions: mock-infected MT4 cells with CMV-EGFP reporter; read-out: TOX-MT4CMV (CC50)

molecule | CC50
COC(=O)NC(C(=O)NC(Cc1ccc(-c2ccc(OC)nc2)cc1)C(O)CC(Cc1cccc(Cl)c1)C(=O)NC1c2ccccc2OCC1O)C(C)(C)C (centres unmarked) [Compound 3] | > 32 µM
Cc1cccc(C)c1OCC(=O)N[C@@H](Cc1ccccc1)[C@@H](O)C[C@H](Cc1ccccc1)NC(=O)[C@H](C(C)C)N1CCCNC1=O [LPV] | 20 µM
COC(=O)N[C@H](C(=O)N[C@@H](Cc1ccc(-c2cnc(C)s2)cc1)[C@@H](O)C[C@@H](Cc1ccccc1F)C(=O)N[C@H]1[C@H](C)CC[C@H]1O)C(C)(C)C [Compound 83] | > 32 µM
COC(=O)N[C@H](C(=O)N[C@@H](Cc1ccc(-c2ccc(N(C)C)nc2)cc1)[C@@H](O)C[C@@H](Cc1cccc(OC)c1)C(=O)N[C@H]1c2cc(F)ccc2OC[C@H]1O)C(C)(C)C [Compound 26] | > 32 µM
CNC(=O)[C@@H](NC(=O)[C@H](Cc1ccccc1F)C[C@H](O)[C@H](Cc1ccc(-c2ccc(N(C)C)nc2)cc1)NC(=O)O[C@H]1CO[C@H]2OCC[C@H]21)C(C)(C)C [Compound 69] | > 32 µM

* * *

Test system: mock-infected MT4 cells
Test: General toxicity assay on mock-infected MT4 cells with CMV-EGFP reporter (CC50)
Format: cell-based
Conditions: MT4LTR cells; read-out: TOX-MT4LTR (CC50)
recorded endpoint: CC50

query smiles | target of assay | meas value
COC(=O)N[C@H](C(=O)N[C@@H](Cc1ccc(-c2cnc(OC)nc2)cc1)[C@@H](O)C[C@@H](Cc1ccccc1F)C(=O)N[C@H]1c2cc(Cl)ccc2OC[C@H]1O)C(C)(C)C | mock-infected MT4 cells | > 32 µM
COC(=O)N[C@H](C(=O)N[C@@H](Cc1ccc(-c2cc(C)nc(C)c2)cc1)[C@@H](O)C[C@@H](Cc1ccccc1F)C(=O)N[C@H]1c2cccc(Cl)c2OC[C@H]1O)C(C)(C)C | mock-infected MT4 cells | > 32 µM
COc1ccc(-c2ccc(C[C@H](NC(=O)O[C@H]3CO[C@H]4OCC[C@H]43)[C@@H](O)C[C@@H](Cc3ccccc3F)C(=O)N[C@H]3[C@H](C)CCC[C@H]3O)cc2)cn1 | mock-infected MT4 cells | > 27 µM
COC(=O)N[C@H](C(=O)N[C@@H](Cc1ccc(-c2ccc(N(C)C)nc2)cc1)[C@@H](O)C[C@@H](Cc1ccccc1F)C(=O)N[C@H]1c2cccc(F)c2OC[C@H]1O)C(C)(C)C | mock-infected MT4 cells | > 32 µM
COC(=O)N[C@H](C(=O)N[C@@H](Cc1ccc(-c2ccc(OC)nc2)cc1)[C@@H](O)C[C@@H](Cc1ccccc1Cl)C(=O)N[C@H]1[C@H](C)CCC[C@H]1O)C(C)(C)C | mock-infected MT4 cells | 16 µM

* * *

Tested on: HIV-1 Strain B (M046I, I050V)
Assay: microbe, parasite or virus in culture
Format: cell-based
Conditions: clinical isolate Strain B; read-out: B EC50

molecule | EC50 / nM
COC(=O)N[C@H](C(=O)N[C@@H](Cc1ccc(-c2ccc(N(C)C)nc2)cc1)[C@@H](O)C[C@@H](Cc1ccccc1F)C(=O)N[C@H]1[C@H](C)CC[C@H]1O)C(C)(C)C | 1.9
COC(=O)NC(C(=O)NC(Cc1ccc(-c2ccc(OC)nc2)cc1)C(O)CC(Cc1ccccc1F)C(=O)NC1c2cc(Cl)ccc2OCC1O)C(C)(C)C (stereo not shown) | 2
CN(C)c1ccc(-c2ccc(C[C@H](NC(=O)[C@@H](NC(=O)C3(C#N)CC3)C(C)(C)C)[C@@H](O)C[C@@H](Cc3ccccc3F)C(=O)N[C@H]3c4cc(F)ccc4OC[C@H]3O)cc2)cn1 | 2.2
Cc1cccc(C)c1OCC(=O)N[C@@H](Cc1ccccc1)[C@@H](O)C[C@H](Cc1ccccc1)NC(=O)[C@H](C(C)C)N1CCCNC1=O | 320
COC(=O)NC(C(=O)NC(Cc1ccc(-c2ccc(N(C)C)nc2)cc1)C(O)CC(Cc1cccc(OC)c1)C(=O)NC1c2ccccc2OCC1O)C(C)(C)C (stereo not shown) | 1.2
Cc1cc(-c2ccc(C[C@H](NC(=O)O[C@H]3CO[C@H]4OCC[C@H]43)[C@@H](O)C[C@@H](Cc3ccccc3F)C(=O)N[C@H]3c4cc(Cl)ccc4OC[C@H]3O)cc2)cc(C)n1 | 1.5
COC(=O)N[C@H](C(=O)N[C@@H](Cc1ccc(-c2ccc(N(C)C)nc2)cc1)[C@@H](O)C[C@@H](Cc1ccccc1F)C(=O)N[C@H]1c2cc(F)ccc2OC[C@H]1O)C(C)(C)C | 1
COC(=O)N[C@H](C(=O)N[C@@H](Cc1ccc(-c2ccc(OC)nc2)cc1)[C@@H](O)C[C@@H](Cc1ccccc1F)C(=O)N[C@H]1c2cc(Cl)cc(F)c2OC[C@H]1O)C(C)(C)C | 2.1
COC(=O)N[C@H](C(=O)N[C@@H](Cc1ccc(-c2ccc(OC)nc2)cc1)[C@@H](O)C[C@@H](Cc1ccccc1Cl)C(=O)N[C@H]1c2cc(F)ccc2OC[C@H]1O)C(C)(C)C | 1.2
COCCOC(=O)N[C@H](C(=O)N[C@@H](Cc1ccc(-c2ccc(N(C)C)nc2)cc1)[C@@H](O)C[C@@H](Cc1ccccc1F)C(=O)N[C@H]1c2cc(F)ccc2OC[C@H]1O)C(C)(C)C | 1.5
